# Protocol: Oral bioavailability in dog
# Type: ADME, organism-based, Canis lupus familiaris
# Test Context: in vivo
Property: bioavailability

Enquiry: Which bioavailability is listed for CCCN(Cc1ccc(-c2ccccc2-c2nn[nH]n2)cc1)c1ncccc1C(=O)O ?
Return: > 50%

----------
# Protocol: Binding affinity to angiotensin AT1 receptor in rat lung membranes
# Type: cell membranes, Membrane
Property: Ki

Enquiry: Which Ki is listed for CCCc1nc2c(C)cc(-c3nc4ccccc4n3C)cc2n1Cc1ccc(-c2ccccc2C(=O)O)cc1 ?
Return: 3.7 nM

----------
# Tgt: Type-1 angiotensin II receptor (Cavia porcellus, UniProt Q9WV26)
# Sequence (Q9WV26 whole entry): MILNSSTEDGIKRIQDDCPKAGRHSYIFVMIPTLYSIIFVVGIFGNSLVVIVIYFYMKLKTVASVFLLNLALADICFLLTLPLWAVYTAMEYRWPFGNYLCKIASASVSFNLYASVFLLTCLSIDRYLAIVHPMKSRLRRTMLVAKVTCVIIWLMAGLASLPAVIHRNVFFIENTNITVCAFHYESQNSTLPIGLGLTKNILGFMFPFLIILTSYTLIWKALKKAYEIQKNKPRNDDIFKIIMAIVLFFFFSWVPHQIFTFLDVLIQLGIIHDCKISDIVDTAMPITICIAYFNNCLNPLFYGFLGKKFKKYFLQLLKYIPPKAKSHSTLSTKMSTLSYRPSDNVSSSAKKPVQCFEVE
# Protocol: Binding affinity to angiotensin AT1 receptor in guinea pig adrenal cortex membranes
Property: pIC50
Scale explanation: pIC50 corresponds to minus log10 of a concentration expressed in moles per litre.

Enquiry: Which pIC50 is listed for CCc1cc(Oc2ccc(-c3ccccc3-c3nnn[nH]3)cc2)c2ncccc2n1 ?
Return: 7.62

Enquiry: # iterate: Cc1cc(Sc2ccc(-c3ccccc3-c3nn[nH]n3)cc2)c2ccccc2n1
Return: 6.43

----------
# Protocol: Antagonist activity at angiotensin AT1 receptor in rat adrenal cortical membranes
# Type: functional, cell membranes
Field: pIC50. Provide a value for each of the compounds that follow.
Scale explanation: pIC50 corresponds to minus log10 of a concentration expressed in moles per litre.

Enquiry: Which pIC50 is listed for CCCCc1nc2cccnc2n1-c1ccc(CCO/C(O)=C2\C(C(C)C)=NC(C)=C(C(=O)Nc3cccnc3)C2c2ccccc2Cl)cc1 (stereo not drawn) ?
Return: 9.22

Enquiry: # iterate: CCCCc1nc(Cl)c(CO)n1Cc1ccc(-c2ccccc2-c2nnn[nH]2)cc1
Return: 9.09

Enquiry: # iterate: CCCc1cc(=O)n(CC(=O)N(C)C)c(=O)n1Cc1ccc(-c2ccccc2-c2nn[nH]n2)cc1
Return: 9.19

----------
Field: Ki. Provide a value for each of the molecules that follow.
# Tgt: Type-1 angiotensin II receptor (Homo sapiens)
# Sequence (P30556 whole entry): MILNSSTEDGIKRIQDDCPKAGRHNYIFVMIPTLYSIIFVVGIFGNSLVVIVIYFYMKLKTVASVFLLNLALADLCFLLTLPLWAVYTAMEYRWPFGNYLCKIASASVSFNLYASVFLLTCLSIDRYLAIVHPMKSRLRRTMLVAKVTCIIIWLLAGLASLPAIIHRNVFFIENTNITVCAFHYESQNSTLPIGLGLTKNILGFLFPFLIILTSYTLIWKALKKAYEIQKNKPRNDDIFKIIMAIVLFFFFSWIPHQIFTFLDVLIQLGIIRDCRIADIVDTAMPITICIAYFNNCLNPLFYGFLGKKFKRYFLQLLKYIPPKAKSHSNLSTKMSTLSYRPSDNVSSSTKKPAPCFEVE
# Protocol: Binding affinity to angiotensin AT1 receptor
# unit: µM | format: bare number

Enquiry: Which Ki is listed for CCCCC1=NC(Cl)=C(C(=O)O)C(C)N1Cc1ccc(-c2ccccc2-c2nnn[nH]2)cc1 (centres undefined) ?
Return: 0.001

Enquiry: # iterate: CCCc1nc2ccccc2n1C(F)(F)C(O)c1ccc(-c2ccccc2-c2nnn[nH]2)cc1 (centres undefined)
Return: 0.029

Enquiry: # iterate: CCCc1nc(C)n2[nH]c(=O)nc2c1Cc1ccc(-c2ccccc2-c2nnn[nH]2)cc1
Return: 0.024

Enquiry: # iterate: CCCCc1nn(-c2ccccc2C(F)(F)F)c(=O)n1Cc1ccc(-c2ccccc2S(=O)(=O)NC(=O)c2ccccc2)cc1
Return: 0.0017
